# measured.on: T1, P7mS
# T1 chain: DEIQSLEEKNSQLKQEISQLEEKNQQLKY
# assay.explanation: two-hybrid library CCNG1;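 also: natural log of median RNA to DNA barcode read ratio; higher means stronger binding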
endpoint: interaction score

Completed entries (count: 3):
| binder | measured.result |
| --- | --- |
| DEIQSLEEKNSQLKQEISQLEEKNQQLKY [P7mS] | -0.531 |
| DEIQQLEEEISQLEQKNSQLKEKNQQLKY [P3mS] | -1.59 |
| DENSQLEEKISQLKQKNSQLKEEIQQLEY [P5mS] | -1.25 |

Shift focus to the following entry.
Briefly, interaction score measured for DENQQLEQEISQLEQEISQLEQKNSQLKY [P11mS] : -0.84
